biological target: MHC DR2 (DRB1*1501/DRA*0101) (Homo sapiens, UniProt P01903+P01911); construct: endogenous in cells; assay: HLA II Binding Assay (competition with biotinylated reference peptide); conditions: purified HLA-DR, biotinylated reference compound for DRB1*1501, 37° C. 24 h to 72 h; read-out: Inhibition of peptide binding IC50 (against MHC DR2 (DRB1*1501/DRA*0101))
Square brackets hold non-standard residues; d marks the D form. Peptide text beside a SMILES is read from it. Bta = N[C@@H](Cc1csc2ccccc12)C(=O)O; Gly(cPent) = N[C@H](C(=O)O)C1CCCC1; Lys(Me2) = CN(C)CCCC[C@H](N)C(=O)O; Tic = O=C(O)[C@@H]1Cc2ccccc2CN1; Chg = N[C@H](C(=O)O)C1CCCCC1; Pip = O=C(O)[C@@H]1CCCCN1
Recorded IC50 for the following compounds

COMPOUND	IC50
CC(C)[C@H](NC(=O)[C@@H](N)Cc1csc2ccccc12)C(=O)N[C@H](C(=O)N[C@@H](CCCNC(=N)N)C(=O)N1Cc2ccccc2C[C@H]1C(=O)N[C@@H](Cc1ccccc1)C(N)=O)C1CCCCC1 [(NH2-BTA)V(Chg)R(Tic)F] (H-[Bta]V[Chg]R[Tic]F-NH2)	10 to 100 nM
CC(=O)N[C@H](C(=O)N[C@@H](CCCCN(C)C)C(=O)N1Cc2ccccc2C[C@H]1C(=O)N[C@@H](Cc1ccccc1)C(=O)N1CCCC[C@H]1C(N)=O)C1CCCC1 [Ac(Cpg)(diMeK)(Tic)F(homo Pro)] (Ac-[Gly(cPent)][Lys(Me2)][Tic]F[Pip]-NH2)	10 to 100 nM

###

target: MHC DR2 (DRB1*1501/DRA*0101) (Homo sapiens, UniProt P01903+P01911); construct: endogenous in cells; host or cells: EBV homozygous (B lymphoblastoid) cell lines; test: HLA II Binding Assay (competition with biotinylated reference peptide); conditions: purified HLA-DR, biotinylated reference compound for DRB1*1501, 37° C. 24 h to 72 h; read-out: Inhibition of peptide binding IC50 (against MHC DR2 (DRB1*1501/DRA*0101))
Square brackets hold non-standard residues; d marks the D form. Peptide text beside a SMILES is read from it. * marks the point of attachment. Phe(3,4-Cl2) = N[C@@H](Cc1ccc(Cl)c(Cl)c1)C(=O)O; Igl = N[C@H](C(=O)O)C1Cc2ccccc2C1; Tic = O=C(O)[C@@H]1Cc2ccccc2CN1; Chg = N[C@H](C(=O)O)C1CCCCC1; Morpholide = C1CN(*)CCO1; βAla = NCCC(=O)O

MOLECULE	IC50
CC(=O)N[C@H](C(=O)N[C@H](C(=O)N[C@@H](CCCNC(=N)N)C(=O)N1Cc2ccccc2C[C@H]1C(=O)N[C@@H](Cc1ccc(Cl)c(Cl)c1)C(N)=O)C1CCCCC1)C(C)C [AcV(Chg)R(Tic)(3,4-dichloro Phe)] (Ac-V[Chg]R[Tic][Phe(3,4-Cl2)]-NH2)	1 to 10 nM
CO[C@H](C)[C@H](NC(C)=O)C(=O)N[C@H](C(=O)N[C@@H](CCCNC(=N)N)C(=O)N1Cc2ccccc2C[C@H]1C(=O)N[C@@H](Cc1ccccc1)C(N)=O)C1CCCCC1 [Ac(T(OMe))(Chg)R(Tic)F] (Ac-T(Me)[Chg]R[Tic]F-NH2)	1 to 10 nM
CC(C)[C@H](NC(=O)CCN)C(=O)N[C@H](C(=O)N[C@@H](Cc1ccccc1)C(=O)N[C@@H](Cc1ccccc1)C(=O)N[C@@H](Cc1ccccc1)C(N)=O)C1CCCCC1 [(NH2-Beta Ala)V(Chg)FFF] (H-[βAla]V[Chg]FFF-NH2)	100 to 1000 nM
CC(=O)N[C@H](C(=O)N[C@H](C(=O)N[C@@H](CCCNC(=N)N)C(=O)N1Cc2ccccc2C[C@H]1C(=O)N[C@@H](Cc1ccccc1)C(=O)N1CCOCC1)C1Cc2ccccc2C1)C(C)C [AcV(Indgly)R(Tic)F-CO(morpholine)] (Ac-V[Igl]R[Tic]F-Morpholide)	10 to 100 nM

###

Recorded pIC50 for the following molecules
biological target: MHC DR2 (DRB1*1501/DRA*0101) (Homo sapiens, UniProt P01903+P01911); construct: endogenous in cells; assay: HLA II Binding Assay (competition with biotinylated reference peptide); details: purified HLA-DR, biotinylated reference compound for DRB1*1501, 37° C. 24 h to 72 h; read-out: Inhibition of peptide binding IC50 (against MHC DR2 (DRB1*1501/DRA*0101))
pIC50: −log10 of the molar value. Numbered stars: 1 amine (or outer) side, 2 acyl side, 3 side chain; on linkers, the order of the positions; unused ones are H or OH. Square brackets hold non-standard residues; d marks the D form. Peptide text beside a SMILES is read from it. X2 = O=C([C@H](Cc1cccc2[nH]cnc12)N[*:1])[*:2]; X5 = O=C(C(Cc1cccc2[nH]ccc12)N[*:1])[*:2]; Tic = O=C(O)[C@@H]1Cc2ccccc2CN1; Chg = N[C@H](C(=O)O)C1CCCCC1

MOLECULE	ASSAYED_SYSTEM	pIC50
CC(=O)N[C@H](C(=O)N[C@H](C(=O)N[C@@H](CCCNC(=N)N)C(=O)N1Cc2ccccc2C[C@H]1C(=O)NC(Cc1cccc2[nH]ccc12)C(N)=O)C1CCCCC1)C(C)C (some centres unmarked) [AcV(Chg)R(Tic)-(4′-Indolyl Ala)] (Ac-V[Chg]R[Tic][X5]-NH2)	MHC DR2 (DRB1*1501/DRA*0101) (Homo sapiens, UniProt P01903+P01911)	8.00 to 9.00
CC(=O)N[C@H](C(=O)N[C@H](C(=O)N[C@@H](CCCNC(=N)N)C(=O)N1Cc2ccccc2C[C@H]1C(=O)N[C@@H](Cc1cccc2[nH]cnc12)C(N)=O)C1CCCCC1)C(C)C [AcV(Chg)R(Tic)(4-benzimidazole)] (Ac-V[Chg]R[Tic][X2]-NH2)	MHC DR2 (DRB1*1501/DRA*0101) (Homo sapiens, UniProt P01903+P01911)	7.00 to 8.00

###

biological target: MHC DR2 (DRB1*1501/DRA*0101) (Homo sapiens, UniProt P01903+P01911); construct: endogenous in cells; experiment: HLA II Binding Assay (competition with biotinylated reference peptide); conditions: purified HLA-DR, biotinylated reference compound for DRB1*1501, 37° C. 24 h to 72 h; read-out: Inhibition of peptide binding IC50 (against MHC DR2 (DRB1*1501/DRA*0101))
pIC50: −log10 of the molar value. Square brackets hold non-standard residues; d marks the D form. Peptide text beside a SMILES is read from it. hCit = NC(=O)NCCCC[C@H](N)C(=O)O; Tic = O=C(O)[C@@H]1Cc2ccccc2CN1; Chg = N[C@H](C(=O)O)C1CCCCC1; βAla = NCCC(=O)O; Sar = CNCC(=O)O
REPORTED_PROPERTY: pIC50

COMPOUND	REPORTED_PROPERTY	EXPERIMENTAL_RESULT
CC(=O)N[C@H](C(=O)N[C@H](C(=O)N[C@@H](CCCCNC(N)=O)C(=O)N1Cc2ccccc2C[C@H]1C(=O)N[C@@H](Cc1ccccc1)C(N)=O)C1CCCCC1)C(C)C [AcV(Chg)(homo Cit)(Tic)F] (Ac-V[Chg][hCit][Tic]F-NH2)	pIC50	8.00 to 9.00
CNCC(=O)N[C@H](C(=O)N[C@H](C(=O)N[C@@H](CCCNC(=N)N)C(=O)N1Cc2ccccc2C[C@H]1C(=O)N[C@@H](Cc1ccccc1)C(N)=O)C1CCCCC1)C(C)C [(NH2-Sar)V(Chg)R(Tic)F] (H-[Sar]V[Chg]R[Tic]F-NH2)	pIC50	8.00 to 9.00
CC(C)[C@H](NC(=O)CCN)C(=O)N[C@H](C(=O)N[C@@H](CCCNC(=N)N)C(=O)N1Cc2ccccc2C[C@H]1C(=O)N[C@@H](Cc1ccccc1)C(N)=O)C1CCCCC1 [(NH2-Beta Ala)V(Chg)R(Tic)F] (H-[βAla]V[Chg]R[Tic]F-NH2)	pIC50	8.00 to 9.00
CC(=O)N[C@H](C(=O)N[C@@H](CCCNC(=N)N)C(=O)N1Cc2ccccc2C[C@H]1C(=O)N[C@@H](Cc1c[nH]c2ccccc12)C(N)=O)C1CCCCC1 [Ac(Chg)R(Tic)(Trp)] (Ac-[Chg]R[Tic]W-NH2)	pIC50	7.00 to 8.00

Ref: patent US20110217324A1
